B1: HDV Ribozyme (parent)
chain: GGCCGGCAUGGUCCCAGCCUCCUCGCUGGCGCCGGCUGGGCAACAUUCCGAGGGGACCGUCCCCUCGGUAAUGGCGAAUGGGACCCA

Variants of: B1
Assay: self-cleavage, relative activity (ratio to wild type); higher = more cleavage; co-transcriptional
self-cleavage vs 0.2: at or above is Met, below is Not met.

>>> assigned_class("G38U U46A")
"Not met"
>>> assigned_class("U9A C61A")
"Met"
>>> assigned_class("C63A A70U")
"Met"
>>> assigned_class("C15U A70U")
"Met"
>>> assigned_class("C13A G53A")
"Met"
>>> assigned_class("G29C A77U")
"Not met"
>>> assigned_class("G35C A70G")
"Met"
>>> assigned_class("U46G U69C")
"Met"
>>> assigned_class("C30U C33A")
"Not met"
>>> assigned_class("C32U G50A")
"Met"
>>> assigned_class("G52C G53A")
"Met"
>>> assigned_class("A51U C63U")
"Met"
>>> assigned_class("C75G A77C")
"Not met"
>>> assigned_class("C58A A87C")
"Met"
>>> assigned_class("G34C C44U")
"Not met"
>>> assigned_class("G6A C26A")
"Met"
>>> assigned_class("C4U G25C")
"Not met"
>>> assigned_class("G28C C75G")
"Not met"
>>> assigned_class("U79G C85A")
"Met"
>>> assigned_class("G5A G25A")
"Not met"
>>> assigned_class("G34U G76A")
"Met"
>>> assigned_class("A16U C24A")
"Met"
>>> assigned_class("C58G C66A")
"Met"
>>> assigned_class("G35A A70U")
"Met"
>>> assigned_class("U69G A78G")
"Met"
>>> assigned_class("G38C C57U")
"Met"
>>> assigned_class("U23C G76U")
"Met"
>>> assigned_class("G10U C64U")
"Met"
>>> assigned_class("A16U G34U")
"Not met"
>>> assigned_class("C19U C49G")
"Not met"
>>> assigned_class("G1A U12C")
"Not met"
>>> assigned_class("C26G G73U")
"Met"
>>> assigned_class("C32A A83C")
"Not met"
>>> assigned_class("A51G G67U")
"Met"
>>> assigned_class("C14A U72C")
"Met"
>>> assigned_class("A42C A56U")
"Met"
>>> assigned_class("A8C G40C")
"Met"
>>> assigned_class("G28A C41G")
"Not met"
>>> assigned_class("A71G A83U")
"Met"
>>> assigned_class("G1A G28C")
"Met"
>>> assigned_class("U20C C21G")
"Not met"
>>> assigned_class("C32A C86G")
"Met"
>>> assigned_class("U9C A71G")
"Met"
>>> assigned_class("U47A C48A")
"Met"
>>> assigned_class("U27G A42U")
"Met"
>>> assigned_class("G73A A77G")
"Met"
>>> assigned_class("C32G U65A")
"Not met"
>>> assigned_class("G73U A83U")
"Not met"
>>> assigned_class("G2C G40A")
"Not met"
>>> assigned_class("C18G U69A")
"Not met"
>>> assigned_class("U20A C63G")
"Not met"
>>> assigned_class("G11U G39U")
"Not met"
>>> assigned_class("U47A C62G")
"Met"
>>> assigned_class("G6A U69C")
"Met"
>>> assigned_class("U12A C22G")
"Not met"
>>> assigned_class("C7U A56U")
"Met"
>>> assigned_class("C4U C58A")
"Met"
>>> assigned_class("G50U C64G")
"Met"
>>> assigned_class("C15A G73A")
"Met"
>>> assigned_class("U20A G55A")
"Not met"
>>> assigned_class("U37A U72A")
"Not met"
>>> assigned_class("G17U C49A")
"Met"
>>> assigned_class("A42U U79C")
"Not met"
>>> assigned_class("G10U G40U")
"Met"
>>> assigned_class("C75A G82C")
"Not met"
>>> assigned_class("C33A A78C")
"Not met"
>>> assigned_class("C3U U37A")
"Not met"
>>> assigned_class("C21G A42C")
"Not met"
>>> assigned_class("G25A U47G")
"Met"
>>> assigned_class("A56G A87G")
"Met"
>>> assigned_class("U27C A87G")
"Met"
>>> assigned_class("C3U U72G")
"Met"
>>> assigned_class("G39U C64G")
"Met"
>>> assigned_class("U9G C64U")
"Met"
>>> assigned_class("C24U G40A")
"Met"
>>> assigned_class("G25C C66U")
"Not met"
>>> assigned_class("A51G C75U")
"Met"
>>> assigned_class("G25C G53U")
"Not met"
>>> assigned_class("A51G C62U")
"Met"
>>> assigned_class("C21U U46G")
"Not met"
>>> assigned_class("C58A G81A")
"Met"
>>> assigned_class("C19G C32A")
"Not met"
>>> assigned_class("U72G A77C")
"Not met"
>>> assigned_class("C48A A77C")
"Met"
>>> assigned_class("G29C C48A")
"Not met"
>>> assigned_class("A51U G80A")
"Met"
>>> assigned_class("C41G A77G")
"Met"
>>> assigned_class("U46C U79A")
"Met"
>>> assigned_class("C3U U60A")
"Met"
>>> assigned_class("C44A A70G")
"Met"
>>> assigned_class("G29C G67U")
"Not met"

Entry source: the RNAGym collection of RNA variant scans (doi:10.7554/elife.80360)
